Molecular target: CD80-CD28 interaction (Homo sapiens)
Assay: Homogenous Time Resolved Fluorescence (HTRF) assay, cell free
Assay type: binding
Conditions: cell free HTRF assay; concentration series 100 μM-1.7 nM; 4 hours at room temperature; read-out: Activity (EC50 in the HTRF assay)
pEC50: −log10 of the molar value.
# maps each entry to its pEC50
Readout label: pEC50

                                    compound  readout_label         value
 0  O=C(NCCC(F)(F)F)c1ccc(-n2[nH]c3c(nnc4ccccc43)c2=O)cc1          pEC50        > 6.00
 1  O=C(NCCCN1CCCC1)c1ccc(-n2[nH]c3c(nnc4ccc(F)cc43)c2=O)cc1          pEC50        > 6.00
 2  CCCCNC(=O)c1ccc(-n2[nH]c3c(nnc4ccccc43)c2=O)cc1          pEC50  5.00 to 6.00
 3  O=C(NC1CCN(Cc2ccccc2)C1)c1ccc(-n2[nH]c3c(nnc4cccc(F)c43)c2=O)cc1 (centres unmarked)          pEC50        > 6.00
 4  CNCCCNC(=O)c1ccc(-n2[nH]c3c(nnc4cccc(F)c43)c2=O)cc1          pEC50        > 6.00
 5  CN(C)CCCNC(=O)c1ccc(-n2[nH]c3c(nnc4c(F)cccc43)c2=O)cc1          pEC50        > 6.00
 6  O=C(Nc1ccc(-n2[nH]c3c(nnc4ccccc43)c2=O)cc1)NC1CCCCCC1          pEC50        < 5.00
 7  O=C(NCCCNC1CCCCC1)c1ccc(-n2[nH]c3c(nnc4c(F)ccc(F)c43)c2=O)cc1          pEC50        > 6.00
 8  O=C(NCCCCN1CCOCC1)c1ccc(-n2[nH]c3c(nnc4ccccc43)c2=O)cc1          pEC50        > 6.00
 9  O=C(NC1CN2CCC1CC2)c1ccc(-n2[nH]c3c(nnc4ccccc43)c2=O)cc1 (centres unmarked)          pEC50        > 6.00
10  CC12CCC(C1)C(C)(C)C2NC(=O)c1ccc(-n2[nH]c3c(nnc4ccccc43)c2=O)cc1 (centres unmarked)          pEC50        > 6.00
11  O=C(NCCN1CCNC1=O)Nc1ccc(-n2[nH]c3c(nnc4ccccc43)c2=O)cc1          pEC50        > 6.00
12  O=C(NCCCNC1CCCCC1)c1ccc(-n2[nH]c3c(nnc4c(F)cccc43)c2=O)cc1          pEC50        > 6.00
13  O=C(NCC(F)F)c1ccc(-n2[nH]c3c(nnc4c(F)cccc43)c2=O)cc1          pEC50        > 6.00
14  CC1(C)CC(NC(=O)c2ccc(-n3[nH]c4c(nnc5c(F)cccc54)c3=O)cc2)CC(C)(C)N1          pEC50        > 6.00
15  CC1CCCCN1CCCNC(=O)c1ccc(-n2[nH]c3c(nnc4c(F)cccc43)c2=O)cc1 (centres unmarked)          pEC50        > 6.00
16  CC1CCCC(NC(=O)c2ccc(-n3[nH]c4c(nnc5ccccc54)c3=O)cc2)C1C (centres unmarked)          pEC50  5.00 to 6.00
17  O=C(NCCCN1CCCC1)c1ccc(-n2[nH]c3c(nnc4cccc(F)c43)c2=O)cc1          pEC50        > 6.00
18  O=C(c1ccc(-n2[nH]c3c(nnc4cccc(F)c43)c2=O)cc1)N1CCC(N2CCCCC2)CC1          pEC50  5.00 to 6.00
19  O=C(CN1CCC(NC(=O)c2ccc(-n3[nH]c4c(nnc5c(F)cccc54)c3=O)cc2)CC1)c1ccccc1          pEC50        > 6.00
20  O=C(NCCc1ccccc1Br)c1ccc(-n2[nH]c3c(nnc4c(F)cccc43)c2=O)cc1          pEC50  5.00 to 6.00
21  O=C(NCCc1cccc(Br)c1)c1ccc(-n2[nH]c3c(nnc4c(F)cccc43)c2=O)cc1          pEC50        < 5.00
22  O=C(NCC1CCCO1)c1ccc(-n2[nH]c3c(nnc4ccccc43)c2=O)cc1 (centres unmarked)          pEC50  5.00 to 6.00
23  Cc1ccccc1CCNC(=O)c1ccc(-n2[nH]c3c(nnc4c(F)cccc43)c2=O)cc1          pEC50  5.00 to 6.00
24  C[Si](C)(C)CNC(=O)c1ccc(-n2[nH]c3c(nnc4ccccc43)c2=O)cc1          pEC50        < 5.00
25  C=CCN(C)CCCCNC(=O)c1ccc(-n2[nH]c3c(nnc4c(F)cccc43)c2=O)cc1          pEC50        > 6.00

###

# maps each entry to its pEC50
Target: CD80-CD28 interaction (Homo sapiens, UniProt P33681)
Sequence (P33681 35-242 limits assumed): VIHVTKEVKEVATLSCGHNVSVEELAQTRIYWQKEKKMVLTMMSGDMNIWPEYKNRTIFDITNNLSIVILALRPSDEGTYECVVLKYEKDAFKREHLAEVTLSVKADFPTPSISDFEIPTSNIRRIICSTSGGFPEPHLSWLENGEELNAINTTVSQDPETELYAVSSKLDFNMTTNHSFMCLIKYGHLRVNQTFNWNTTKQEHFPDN
Experiment: Homogenous Time Resolved Fluorescence (HTRF) assay, cell free
Type: binding
Settings: cell-free HTRF, concentration series 100 μM-1.7 nM, 4 hours at room temperature; read-out: Activity (EC50 in the HTRF assay)
pEC50: −log10 of the molar value.
Readout label: pEC50

>>> print(df.to_string())
                                    compound         value
 0  CC(CO)(CO)NC(=O)c1ccc(-n2[nH]c3c(nnc4c(F)cccc43)c2=O)cc1        > 6.00
 1  O=C(N[C@H]1CC[C@H](O)CC1)c1ccc(-n2[nH]c3c(nnc4c(F)cccc43)c2=O)cc1        > 6.00
 2  O=C(N[C@H]1c2ccccc2C[C@H]1O)c1ccc(-n2[nH]c3c(nnc4c(F)cccc43)c2=O)cc1  5.00 to 6.00
 3  O=C(NCC(F)(F)C(F)F)c1ccc(-n2[nH]c3c(nnc4c(F)cccc43)c2=O)cc1        > 6.00
 4  O=C(NC(CO)Cc1ccc(O)cc1)c1ccc(-n2[nH]c3c(nnc4c(F)cccc43)c2=O)cc1 (stereo not shown)  5.00 to 6.00
 5  CCC(C)(C)NCCCCNC(=O)c1ccc(-n2[nH]c3c(nnc4c(F)cccc43)c2=O)cc1        > 6.00
 6  O=C(NC1CCC(=C(F)F)CC1)c1ccc(-n2[nH]c3c(nnc4c(F)cccc43)c2=O)cc1 (stereo not shown)        > 6.00
 7  C=CCN(CC=C)C(=O)c1ccc(-n2[nH]c3c(nnc4c(F)cccc43)c2=O)cc1  5.00 to 6.00
 8  O=C(NCCCCN1CCC(C(F)(F)F)CC1)c1ccc(-n2[nH]c3c(nnc4c(F)cccc43)c2=O)cc1        > 6.00
 9  N#CCCNC(=O)c1ccc(-n2[nH]c3c(nnc4c(F)cccc43)c2=O)cc1        > 6.00
10  C=CCN(CC=C)CCCCNC(=O)c1ccc(-n2[nH]c3c(nnc4c(F)cccc43)c2=O)cc1        > 6.00
11  O=C(NCCCC(F)F)c1ccc(-n2[nH]c3c(nnc4c(F)cccc43)c2=O)cc1        > 6.00
12  CC(C)(C)CNCCCCNC(=O)c1ccc(-n2[nH]c3c(nnc4c(F)cccc43)c2=O)cc1        > 6.00

###

Biological target: CD80-CD28 interaction (Homo sapiens, UniProt P33681)
Sequence (P33681 35-242 limits assumed): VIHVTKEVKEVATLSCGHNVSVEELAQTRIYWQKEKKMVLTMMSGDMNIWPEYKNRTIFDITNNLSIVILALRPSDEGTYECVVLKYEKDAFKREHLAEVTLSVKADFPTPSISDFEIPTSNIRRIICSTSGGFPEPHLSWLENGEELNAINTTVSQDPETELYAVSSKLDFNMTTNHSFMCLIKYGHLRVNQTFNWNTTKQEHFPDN
Assay: Homogenous Time Resolved Fluorescence (HTRF) assay, cell free
Type: binding
Conditions: cell free HTRF assay; concentration series 100 μM-1.7 nM; 4 hours at room temperature; read-out: Activity (EC50 in the HTRF assay)
Readout label: EC50

In [3]: df
Out[3]:
                                   molecule             value
0  O=C(NCCc1ccc(Cl)cc1Cl)c1ccc(-n2[nH]c3c(nnc4c(F)cccc43)c2=O)cc1 [Example 370]  1000 to 10000 nM
1  O=C(NCCCCN1CCOCC1)c1ccc(-n2[nH]c3c(nnc4c(F)cccc43)c2=O)cc1 [Example 434]         < 1000 nM
2  O=C(NC1CCOC1=O)c1ccc(-n2[nH]c3c(nnc4ccccc43)c2=O)cc1 (stereo not drawn) [Example 277]  1000 to 10000 nM
3  CN1C(C)(C)CC(NC(=O)c2ccc(-n3[nH]c4c(nnc5c(F)cccc54)c3=O)cc2)CC1(C)C [Example 234]         < 1000 nM
4  CN1CCCC1CCNC(=O)c1ccc(-n2[nH]c3c(nnc4ccc(F)cc43)c2=O)cc1 (stereo not drawn) [Example 327]         < 1000 nM
5  O=C(NCCCc1ccccc1)Nc1ccc(-n2[nH]c3c(nnc4ccccc43)c2=O)cc1 [Example 291]        > 10000 nM
